Measured values drawn from PubChem BioAssay (NCI) for this set.

Test system: A549 NSCLC
Test: NCI tumour cell line growth inhibition, 48 h
reported-metric: TGI

compound="COC(=O)C(C(=O)C(=O)Nc1nc2ccc(OC)cc2s1)c1cnc2ccccc2n1 (centres undefined)" experimental_target="A549 NSCLC" test_value="> 100 µM"
compound=CCOC(=O)c1sc2c(c1OC(=O)c1ccco1)c(=O)n(-c1ccccc1)c(=S)n2-c1ccccc1 experimental_target="A549 NSCLC" test_value="> 100 µM"
compound="Cc1ccc(C)c(NC(=O)C(=O)C(C2C(C)CC(=O)C2CC(=O)O)[N+](=O)[O-])c1 (centres undefined)" experimental_target="A549 NSCLC" test_value="> 100 µM"
compound="C[C@H]1CCC/C=C/[C@@H]2C[C@H](O)C[C@H]2[C@H](O)C(O)C(O)C(=O)O1 (some centres undefined)" experimental_target="A549 NSCLC" test_value="> 100 µM"
compound=c1ccc([P+](Cc2ccc(C[P+](c3ccccc3)(c3ccccc3)c3ccccc3)s2)(c2ccccc2)c2ccccc2)cc1 experimental_target="A549 NSCLC" test_value="> 100 µM"
compound=O=c1oc2cc(O)ccc2cc1-c1nc2ccccc2o1 experimental_target="A549 NSCLC" test_value="> 100 µM"
compound=CCc1cccc(CC)c1Nc1nc(-c2ccccc2-c2ccccc2)cs1 experimental_target="A549 NSCLC" test_value="> 100 µM"
compound=NC(=O)c1c(-c2ccccc2)c(-c2ccccc2)cc2c(=O)c3ccccc3[nH]c12 experimental_target="A549 NSCLC" test_value="50.6 µM"
compound=O=C(Nc1ccc(Br)cc1)c1cc(Br)ccc1O experimental_target="A549 NSCLC" test_value="> 100 µM"
compound=NC(=S)N/N=C1\CCc2ccccc2C1 experimental_target="A549 NSCLC" test_value="> 100 µM"
compound=O=C1C=CC(=O)N1c1ccc2ccccc2c1 experimental_target="A549 NSCLC" test_value="43.2 µM"
compound=COc1cccc(/C=N/[N+](C)(C)C)c1O experimental_target="A549 NSCLC" test_value="> 10 µM"
compound="CCCCCCCCCCCCCCCCNc1nc(=O)n(C2CC(O)C(COP(=O)(O)OC3CC(n4cc(F)c(=O)[nH]c4=O)OC3CO)O2)cc1F (centres undefined)" experimental_target="A549 NSCLC" test_value="26.4 µM"
compound=O=C(Cn1c(C(=O)/C=C/c2ccc(Cl)c(Cl)c2)nc2ccccc21)c1ccccc1 experimental_target="A549 NSCLC" test_value="59.8 µM"
compound=CCN(CC)CCNc1ccc2nc(C)n3c4ccc(OC)cc4c(=O)c1c23 experimental_target="A549 NSCLC" test_value="15 µM"
compound=CS(C)(=O)=Nn1c(=O)n2n(c1=O)[C@H]1CC[C@@H]2C1 experimental_target="A549 NSCLC" test_value="> 100 µM"
compound=CC1=NN(c2nc(N)nc(CCl)n2)C(C)(C)C1 experimental_target="A549 NSCLC" test_value="> 100 µM"
compound=CCOC(=O)c1nc2sc(Cl)cn2c1/C=N/N=C(N)N experimental_target="A549 NSCLC" test_value="> 58.3 µM"
compound=COC(=O)/C=C1\C(=O)Nc2ccc(Br)cc21 experimental_target="A549 NSCLC" test_value="12.3 µM"
compound=COc1cc(/C=C/C(=O)c2cccc(-n3cc(-c4ccccc4)[nH]c3=O)c2)ccc1O experimental_target="A549 NSCLC" test_value="17.8 µM"
compound="O=C(O)C(C1NCCS1)N1C(=O)c2ccccc2C1=O (centres undefined)" experimental_target="A549 NSCLC" test_value="> 100 µM"
compound="C#CCNC(CCCN=C(N)N)C(=O)O (centres undefined)" experimental_target="A549 NSCLC" test_value="> 100 µM"
compound=Nc1nc2cc(COc3ccc(C(=O)O)cc3)ccc2nc1-c1ccccc1 experimental_target="A549 NSCLC" test_value="> 10 µM"
compound=N=c1oc2ccccc2cc1C(=O)Nc1ccccn1 experimental_target="A549 NSCLC" test_value="> 100 µM"
compound=CCOC(=O)/C(=C\n1c(=O)sc2ccccc21)C(=O)c1ccccc1 experimental_target="A549 NSCLC" test_value="> 100 µM"
compound="CCOC(=O)C1Cc2ccc(C)cc2C1=O (centres undefined)" experimental_target="A549 NSCLC" test_value="> 100 µM"
compound="O=C(O)C(Cc1ccc(O)cc1)N=Cc1nc(-c2ccccc2)oc1O (centres undefined)" experimental_target="A549 NSCLC" test_value="> 100 µM"
compound="CC(C)(C)C1CC[C@H](O)[C@H]([C@@H](O)CC2CC(=O)N(c3ccccc3)C(=O)C2)C1 (some centres undefined)" experimental_target="A549 NSCLC" test_value="> 100 µM"
compound="C=C(Cl)C(Cl)(CBr)CCCC(C)C (centres undefined)" experimental_target="A549 NSCLC" test_value="54.8 µM"
compound=O=C(O)CNc1ncc2c(n1)-c1ccccc1OC2 experimental_target="A549 NSCLC" test_value="> 100 µM"
compound=O=C1CC[C@@H]2[C@H]3CCC(=O)c4c3c(c3cccc(O)c3c4O)O[C@@]23C(=O)c2cccc(O)c2C(O)=C13 experimental_target="A549 NSCLC" test_value="> 100 µM"
compound=O=[N+]([O-])C(=C1c2ccccc2-c2ccccc21)[N+](=O)[O-] experimental_target="A549 NSCLC" test_value="> 100 µM"
compound=COP(=O)(OC)[C@@](O)(c1ccccc1)[C@@H](O)[C@@H](O)c1ccccc1 experimental_target="A549 NSCLC" test_value="> 100 µM"
compound=COc1ccc(C)cc1-c1ccc(-c2cc(C)ccc2OC)o1 experimental_target="A549 NSCLC" test_value="> 100 µM"
compound=O=c1c2cc([N+](=O)[O-])ccc2[nH]n1Cc1ccccc1Cl experimental_target="A549 NSCLC" test_value="> 100 µM"
compound=Cc1ccnn1CCc1ccc(Cl)cc1Cl experimental_target="A549 NSCLC" test_value="> 100 µM"
compound=Oc1ccc(Br)cc1C=Nc1ccc(Oc2ccc(N=Cc3cc(Br)ccc3O)cc2)cc1 experimental_target="A549 NSCLC" test_value="> 19.6 µM"
compound=CN(C)/C=N/S(=O)(=O)c1nn2c(C=O)c(-c3ccc(-c4ccccc4)cc3)nc2s1 experimental_target="A549 NSCLC" test_value="> 44.5 µM"
compound=O=C1C=CC2(C=C1)O[C@H](CCc1ccccc1)[C@@H](CCc1ccccc1)O2 experimental_target="A549 NSCLC" test_value="> 100 µM"
compound=Cc1ccc2c(n1)C(=O)c1cc(C)c(C)cc1C2=O experimental_target="A549 NSCLC" test_value="> 100 µM"
compound=O=C1C[C@@H]2[C@@H](C=CC23CCCC3)N1O experimental_target="A549 NSCLC" test_value="> 100 µM"
compound=COc1ccc2[nH]c(=O)cc(C)c2c1[N+](=O)[O-] experimental_target="A549 NSCLC" test_value="> 100 µM"
compound=COc1cc(C)cc2c1C(=O)C(NC(C)=O)=CC2=O experimental_target="A549 NSCLC" test_value="> 100 µM"
compound=COc1cnc2oc3ccc(O)cc3c2c1-c1ccccc1 experimental_target="A549 NSCLC" test_value="> 100 µM"
